The reported measurements were obtained from ChEMBL document CHEMBL1131064.

The following compounds are shown together with reported No. of mice protected values.
Organism: Mus musculus
measurement.description: Tested for anticonvulsant activity by measuring rate of mice protected against electric shock applied at 0.5 hr after injection in maximal electroshock seizure (MES) test; out of 6
Type: functional

Some solved cases for reference:
Cc1cccc(Nc2ccncc2S(=O)(=O)NC(=O)NC(C)C)c1 [TORSEMIDE]
0
O=[N+]([O-])/C=C(\NC1CCCCCCC1)NS(=O)(=O)c1cnccc1NC1CCCCCCC1
0
O=[N+]([O-])/C=C(\NC1CCCCCCC1)NS(=O)(=O)c1cnccc1NC1CCCCCC1
1

Fill in the blank: the reported No. of mice protected of "Cc1cccc(Nc2ccncc2S(=O)(=O)N/C(=C/[N+](=O)[O-])NC2CCCCC2)c1" is ____.
1

Fill in the blank: the reported No. of mice protected of "O=[N+]([O-])/C=C(\NC1CCCCC1)NS(=O)(=O)c1cnccc1NC1CCCCCC1" is ____.
1

Fill in the blank: the reported No. of mice protected of "O=[N+]([O-])/C=C(\NC1CCCCCC1)NS(=O)(=O)c1cnccc1NC1CCCCC1" is ____.
0

Fill in the blank: the reported No. of mice protected of "O=[N+]([O-])/C=C(\NC1CCCCC1)NS(=O)(=O)c1cnccc1NC1CCCCC1" is ____.
0

Fill in the blank: the reported No. of mice protected of "O=[N+]([O-])/C=C(\NC1CCCCCC1)NS(=O)(=O)c1cnccc1NC1CCCCCCC1" is ____.
2

Fill in the blank: the reported No. of mice protected of "O=[N+]([O-])/C=C(\NC1CCCCCC1)NS(=O)(=O)c1cnccc1NC1CCCCCC1" is ____.
1

Fill in the blank: the reported No. of mice protected of "O=[N+]([O-])/C=C(\NC1CCCCC1)NS(=O)(=O)c1cnccc1NC1CCCCCCC1" is ____.
1

Fill in the blank: the reported No. of mice protected of "O=[N+]([O-])/C=C(\NC1CCCCCCC1)NS(=O)(=O)c1cnccc1NC1CCCCC1" is ____.
2

====

measurement.description: Partition coefficient (logP)
Type: physicochemical
experimental.conditions: octanol/water
reported.endpoint: logP
Write the number on its own, no unit after it.

O=[N+]([O-])/C=C(\NC1CCCCCC1)NS(=O)(=O)c1cnccc1NC1CCCCC1
1.97
O=[N+]([O-])/C=C(\NC1CCCCC1)NS(=O)(=O)c1cnccc1NC1CCCCCC1
1.99
O=[N+]([O-])/C=C(\NC1CCCCCC1)NS(=O)(=O)c1cnccc1NC1CCCCCC1
2.3
Cc1cccc(Nc2ccncc2S(=O)(=O)N/C(=C/[N+](=O)[O-])NC2CCCCC2)c1
1.66

Okay, now this compound:
Fill in the blank: the reported logP of "O=[N+]([O-])/C=C(\NC1CCCCCC1)NS(=O)(=O)c1cnccc1NC1CCCCCCC1" is ____.
2.59

====

measurement.description: Partition coefficient (logP)
Type: physicochemical
experimental.conditions: octanol/water
reported.endpoint: logP
Write the number on its own, no unit after it.

Some solved cases for reference:
O=[N+]([O-])/C=C(\NC1CCCCC1)NS(=O)(=O)c1cnccc1NC1CCCCCCC1
2.31
O=[N+]([O-])/C=C(\NC1CCCCCCC1)NS(=O)(=O)c1cnccc1NC1CCCCCCC1
2.86
O=[N+]([O-])/C=C(\NC1CCCCC1)NS(=O)(=O)c1cnccc1NC1CCCCC1
1.67
O=[N+]([O-])/C=C(\NC1CCCCCCC1)NS(=O)(=O)c1cnccc1NC1CCCCCC1
2.57

Okay, now this compound:
Fill in the blank: the reported logP of "O=[N+]([O-])/C=C(\NC1CCCCCCC1)NS(=O)(=O)c1cnccc1NC1CCCCC1" is ____.
2.27

====

measurement.description: Partition coefficient in 1-octanol phosphate buffer at pH 7.40
Format: physicochemical
experimental.conditions: pH 7.4
The following compounds are shown together with reported logD values.
Write the number on its own, no unit after it.

Some solved cases for reference:
CCNc1ccncc1S(=O)(=O)N/C(=C/[N+](=O)[O-])NC(C)C
-0.482
Cc1cccc(Nc2ccncc2S(=O)(=O)N/C(=C/[N+](=O)[O-])NC(C)C)c1
1.12

Fill in the blank: the reported logD of "CC(C)N/C(=C\[N+](=O)[O-])NS(=O)(=O)c1cnccc1NC1CCCC1" is ____.
0.538

====

Species: Mus musculus
measurement.description: Tested for anticonvulsant activity by measuring rate of mice protected against electric shock applied at 3 hr after injection in maximal electroshock seizure (MES) test; out of 7
Assay type: functional
The following molecules are shown together with reported No. of mice protected values.

Some solved cases for reference:
O=[N+]([O-])/C=C(\NC1CCCCCCC1)NS(=O)(=O)c1cnccc1NC1CCCCC1
4
O=[N+]([O-])/C=C(\NC1CCCCCCC1)NS(=O)(=O)c1cnccc1NC1CCCCCCC1
3
O=[N+]([O-])/C=C(\NC1CCCCCC1)NS(=O)(=O)c1cnccc1NC1CCCCC1
5
O=[N+]([O-])/C=C(\NC1CCCCC1)NS(=O)(=O)c1cnccc1NC1CCCCC1
4
O=[N+]([O-])/C=C(\NC1CCCCCCC1)NS(=O)(=O)c1cnccc1NC1CCCCCC1
4

Okay, now this molecule:
Fill in the blank: the reported No. of mice protected of "O=[N+]([O-])/C=C(\NC1CCCCC1)NS(=O)(=O)c1cnccc1NC1CCCCCCC1" is ____.
7
